# assay.text: Cytotoxicity against human MCF7 cells assessed as cell growth inhibition after 48 hrs by SRB assay
# Assay type: functional
# conditions: MCF7, 48 h

entry.smiles	GI50
COc1c(O)c(O)cc2c1oc1c3ccccc3oc(=O)c21	87.3 µM
Cc1cccc(O)c1O	27.3 µM
COc1c(O)c(O)cc2c1oc1c3cc(C)ccc3oc(=O)c21	65.8 µM
O=c1oc2ccccc2c2oc3cc(O)c(O)cc3c12	39.4 µM
Cc1cc2oc(=O)c3c4cc(O)c(O)c(F)c4oc3c2cc1C	77.7 µM
O=c1oc2ccccc2c2oc3c(F)c(O)c(O)cc3c12	53.1 µM
Cc1ccc2oc(=O)cc(O)c2c1	84.4 µM
Oc1cccc(F)c1O	57.6 µM
O=c1oc2ccc(Cl)cc2c2oc3c(F)c(O)c(O)cc3c12	70.3 µM
Cc1cc2oc(=O)c3c4cc(O)c(O)c(C)c4oc3c2cc1C	87.3 µM
Cc1ccc2oc(=O)c3c4cc(O)c(O)cc4oc3c2c1	54.7 µM
COc1cccc(O)c1O	27.6 µM

====

# experimental.target: Arachidonate 5-lipoxygenase (Sus scrofa, UniProt K7GQZ4)
# Sequence (K7GQZ4 whole entry): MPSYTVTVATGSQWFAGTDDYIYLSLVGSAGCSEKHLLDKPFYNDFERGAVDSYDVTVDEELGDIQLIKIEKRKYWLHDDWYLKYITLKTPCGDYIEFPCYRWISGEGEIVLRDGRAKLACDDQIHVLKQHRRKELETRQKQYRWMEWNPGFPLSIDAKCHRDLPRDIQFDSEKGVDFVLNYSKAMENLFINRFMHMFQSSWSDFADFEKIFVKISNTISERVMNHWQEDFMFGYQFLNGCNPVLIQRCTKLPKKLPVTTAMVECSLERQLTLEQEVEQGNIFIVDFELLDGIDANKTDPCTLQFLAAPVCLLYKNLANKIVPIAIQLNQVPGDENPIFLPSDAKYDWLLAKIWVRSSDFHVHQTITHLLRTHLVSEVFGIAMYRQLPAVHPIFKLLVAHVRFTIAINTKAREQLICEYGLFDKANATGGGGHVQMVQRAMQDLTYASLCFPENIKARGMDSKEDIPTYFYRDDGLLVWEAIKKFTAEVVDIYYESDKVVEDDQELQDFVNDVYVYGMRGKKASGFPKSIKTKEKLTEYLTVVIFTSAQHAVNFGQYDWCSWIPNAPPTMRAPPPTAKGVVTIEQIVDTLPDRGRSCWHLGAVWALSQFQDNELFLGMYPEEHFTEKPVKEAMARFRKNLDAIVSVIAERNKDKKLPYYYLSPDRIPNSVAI
# assay.text: Inhibition of 5-lipoxygenase in pig leukocytes using arachidonic acid as substrate
pIC50: −log10 of the molar value.
measure.name: pIC50

entry.smiles	experimental.target	recorded.result
COc1cc(O)c2c(c1)oc(=O)c1c3cc(O)c(O)cc3oc21	Arachidonate 5-lipoxygenase (Sus scrofa, UniProt K7GQZ4)	5.60

====

# assay.text: Cytotoxicity against human TK10 cells assessed as cell growth inhibition after 48 hrs by SRB assay
# Type: functional
# conditions: TK-10, 48 h
measure.name: GI50

entry.smiles	recorded.result
Cc1cc2oc(=O)cc(O)c2cc1C	> 100 µM
Cc1cccc(O)c1O	38.1 µM
Oc1ccccc1O	68 µM
Cc1cc2oc(=O)c3c4cc(O)c(O)c(C)c4oc3c2cc1C	> 100 µM
COc1c(O)c(O)cc2c1oc1c3cc(C)ccc3oc(=O)c21	88.6 µM
Oc1cccc(F)c1O	84.7 µM
COc1c(O)c(O)cc2c1oc1c3ccccc3oc(=O)c21	> 100 µM

====

# GI50 annotations
# assay.text: Cytotoxicity against human TK10 cells assessed as cell growth inhibition after 48 hrs by SRB assay
# Format: functional
# conditions: TK-10, 48 h
measure.name: GI50 (µM)

entry.smiles	qualifying.sign	recorded.result
O=c1cc(O)c2cc(Cl)ccc2o1	>	100
O=c1oc2ccc(Cl)cc2c2oc3cc(O)c(O)cc3c12	=	53.4
Cc1ccc2oc(=O)c3c4cc(O)c(O)cc4oc3c2c1	=	52

====

# GI50 annotations
# assay.text: Cytotoxicity against human TK10 cells assessed as cell growth inhibition after 48 hrs by SRB assay
# Format: functional
# conditions: TK-10, 48 h
measure.name: GI50 (µM)

compound	qualifying.sign	recorded.result
O=c1oc2ccccc2c2oc3cc(O)c(O)cc3c12	=	28.7
O=c1oc2ccccc2c2oc3c(F)c(O)c(O)cc3c12	>	100
COc1cccc(O)c1O [3-METHOXYCATECHOL]	=	51.6
O=c1cc(O)c2ccccc2o1 [4-HYDROXYCOUMARINS]	>	100
O=c1oc2ccc(Cl)cc2c2oc3c(F)c(O)c(O)cc3c12	>	100
Cc1cc2oc(=O)c3c4cc(O)c(O)c(F)c4oc3c2cc1C	>	100
Cc1ccc2oc(=O)cc(O)c2c1	>	100
Cc1c(O)c(O)cc2c1oc1c3cc(Cl)ccc3oc(=O)c21	=	58.1
Cc1ccc2oc(=O)c3c4cc(O)c(O)c(C)c4oc3c2c1	=	48.8
Cc1c(O)c(O)cc2c1oc1c3ccccc3oc(=O)c21	>	100
Cc1cc2oc(=O)c3c4cc(O)c(O)cc4oc3c2cc1C	=	53.3
COc1c(O)c(O)cc2c1oc1c3cc(C)c(C)cc3oc(=O)c21	=	26.8

====

# assay.text: Cytotoxicity against human MCF7 cells assessed as cell growth inhibition after 48 hrs by SRB assay
# Assay type: functional
# conditions: MCF7, 48 h
# log10 of GI50 annotations
measure.name: log10 of GI50 (log10 of the value in µM)

molecule	recorded.result
Cc1ccc2oc(=O)c3c4cc(O)c(O)c(C)c4oc3c2c1	0.90
COc1c(O)c(O)cc2c1oc1c3cc(C)c(C)cc3oc(=O)c21	1.47
COc1cc([C@@H]2c3cc4c(cc3[C@@H](O[C@@H]3O[C@@H]5CO[C@@H](C)O[C@H]5[C@H](O)[C@H]3O)[C@H]3COC(=O)[C@H]23)OCO4)cc(OC)c1O [ETOPOSIDE]	-0.25
O=c1oc2ccc(Cl)cc2c2oc3cc(O)c(O)cc3c12	1.68
O=c1cc(O)c2ccccc2o1 [4-HYDROXYCOUMARINS]	1.98
Cc1cc2oc(=O)c3c4cc(O)c(O)cc4oc3c2cc1C	1.66
Cc1c(O)c(O)cc2c1oc1c3cc(Cl)ccc3oc(=O)c21	1.80
Cc1cc2oc(=O)cc(O)c2cc1C	1.92
Cc1c(O)c(O)cc2c1oc1c3ccccc3oc(=O)c21	1.74
O=c1cc(O)c2cc(Cl)ccc2o1	1.92
Oc1ccccc1O [CATECHOL]	1.72
